Reference source: patent US20160122421A1

List of Kd values.
target.of.assay: T1, eTau 2
T1 construct: member of the group m9
T1 polypeptide: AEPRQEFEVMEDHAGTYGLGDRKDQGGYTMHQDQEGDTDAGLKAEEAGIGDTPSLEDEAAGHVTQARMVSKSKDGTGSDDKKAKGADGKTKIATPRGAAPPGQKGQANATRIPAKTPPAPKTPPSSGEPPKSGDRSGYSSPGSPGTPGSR
assay.protocol: relative binding affinity, method not named (Table 4)
Give your result in nM as a bare value.

VH1/Vk4 (antibody, V domains shown, member of the group m7; also called humanized IPN002 variant VH1/Vk4) VH: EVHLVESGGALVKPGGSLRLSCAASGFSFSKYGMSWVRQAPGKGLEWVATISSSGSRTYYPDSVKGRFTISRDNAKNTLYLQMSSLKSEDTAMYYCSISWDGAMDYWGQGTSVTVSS VL: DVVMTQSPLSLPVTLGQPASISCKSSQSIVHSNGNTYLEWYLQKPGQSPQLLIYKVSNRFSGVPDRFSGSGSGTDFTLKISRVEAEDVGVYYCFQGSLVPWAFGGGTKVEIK ... 0.427

Q) What Kd value was documented for this binder, VH4/Vk1 (antibody, V domains shown, member of the group m7; also called humanized IPN002 variant VH4/Vk1) VH: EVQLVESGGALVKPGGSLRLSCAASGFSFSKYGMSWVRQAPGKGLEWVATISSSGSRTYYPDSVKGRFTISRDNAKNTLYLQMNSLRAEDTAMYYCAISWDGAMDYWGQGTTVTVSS VL: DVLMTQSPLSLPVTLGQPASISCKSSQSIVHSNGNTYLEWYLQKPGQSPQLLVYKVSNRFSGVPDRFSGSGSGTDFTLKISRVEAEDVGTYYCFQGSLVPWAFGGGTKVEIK ?
A) 0.405
